Items are presented alongside their recorded IC50.
- tgt: recombinant rat GluN1/GluN2A (Rattus norvegicus, UniProt P35439+Q00959)
- Sequence (Q00959 23-1464, other chains not shown): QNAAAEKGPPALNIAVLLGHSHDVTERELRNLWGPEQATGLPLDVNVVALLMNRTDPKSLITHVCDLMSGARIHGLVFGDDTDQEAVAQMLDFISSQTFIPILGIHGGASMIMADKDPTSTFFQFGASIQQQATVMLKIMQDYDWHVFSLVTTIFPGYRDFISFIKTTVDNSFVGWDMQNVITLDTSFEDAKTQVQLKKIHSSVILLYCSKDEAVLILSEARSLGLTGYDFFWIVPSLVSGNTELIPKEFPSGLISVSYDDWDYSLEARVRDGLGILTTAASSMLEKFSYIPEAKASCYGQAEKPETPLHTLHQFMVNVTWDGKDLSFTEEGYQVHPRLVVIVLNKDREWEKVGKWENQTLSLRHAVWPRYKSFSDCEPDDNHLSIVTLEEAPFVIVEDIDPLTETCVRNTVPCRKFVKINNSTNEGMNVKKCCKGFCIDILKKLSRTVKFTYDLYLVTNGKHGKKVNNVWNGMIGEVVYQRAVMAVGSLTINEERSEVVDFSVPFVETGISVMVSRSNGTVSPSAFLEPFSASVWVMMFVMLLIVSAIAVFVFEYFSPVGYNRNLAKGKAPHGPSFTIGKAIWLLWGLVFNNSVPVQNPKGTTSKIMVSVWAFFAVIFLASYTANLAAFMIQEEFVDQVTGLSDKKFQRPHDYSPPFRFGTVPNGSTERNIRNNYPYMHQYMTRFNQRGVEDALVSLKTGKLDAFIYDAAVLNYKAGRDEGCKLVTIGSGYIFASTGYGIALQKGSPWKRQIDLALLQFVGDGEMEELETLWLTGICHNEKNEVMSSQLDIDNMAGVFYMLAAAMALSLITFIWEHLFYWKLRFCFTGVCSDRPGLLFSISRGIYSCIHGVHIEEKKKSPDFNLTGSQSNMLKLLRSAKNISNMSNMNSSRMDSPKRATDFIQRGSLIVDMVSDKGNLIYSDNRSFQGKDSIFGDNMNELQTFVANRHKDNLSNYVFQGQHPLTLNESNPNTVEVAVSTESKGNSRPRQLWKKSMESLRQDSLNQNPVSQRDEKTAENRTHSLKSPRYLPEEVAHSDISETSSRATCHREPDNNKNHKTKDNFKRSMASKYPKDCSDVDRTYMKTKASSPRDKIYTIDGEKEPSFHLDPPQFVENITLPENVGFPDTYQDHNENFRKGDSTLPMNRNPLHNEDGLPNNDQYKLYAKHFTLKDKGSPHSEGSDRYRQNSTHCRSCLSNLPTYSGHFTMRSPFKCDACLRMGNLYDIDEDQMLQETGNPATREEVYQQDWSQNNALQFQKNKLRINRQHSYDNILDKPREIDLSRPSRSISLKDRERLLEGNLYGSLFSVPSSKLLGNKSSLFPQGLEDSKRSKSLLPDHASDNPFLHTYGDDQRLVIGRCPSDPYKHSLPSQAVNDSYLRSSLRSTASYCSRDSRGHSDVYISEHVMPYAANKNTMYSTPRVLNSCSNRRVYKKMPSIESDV
- assay.remarks: Two-electrode voltage-clamp recordings in Xenopus laevis oocytes, GluN2A
- test.parameters: oocytes, 100 μM glutamate and 30 μM glycine

>  <compound>
O=C(O)CC(F)(F)C(=O)N1N=C(c2c(-c3ccc(Cl)cc3)c3ccccc3[nH]c2=O)CC1c1ccc(Cl)cc1 (stereo not shown)

>  <tgt>
recombinant rat GluN1/GluN2A (Rattus norvegicus, UniProt P35439+Q00959)

>  <IC50>
11 µM

$$$$
>  <compound>
O=C(O)CCC(=O)N1N=C(c2c(-c3ccc(Cl)s3)c3ccccc3[nH]c2=O)CC1c1ccc(Cl)cc1 (stereo not shown)

>  <tgt>
recombinant rat GluN1/GluN2A (Rattus norvegicus, UniProt P35439+Q00959)

>  <IC50>
13 µM

$$$$
>  <compound>
O=C(O)CC(F)(F)C(=O)N1N=C(c2c(-c3ccc(Cl)cc3)c3ccccc3[nH]c2=O)CC1c1ccc(C(F)(F)F)cc1 (stereo not shown)

>  <tgt>
recombinant rat GluN1/GluN2A (Rattus norvegicus, UniProt P35439+Q00959)

>  <IC50>
2.3 µM

$$$$

Quick one: IC50 of Cc1ccc2[nH]c(=O)c(C3=NN(C(=O)C(F)(F)CC(=O)O)C(c4ccc(Cl)cc4)C3)c(-c3ccc(Cl)cc3)c2c1 (stereo not shown) [997-90] ? 3 µM

# get_value(readout='IC50', item= O=C(O)CC(F)(F)C(=O)N1N=C(c2c(-c3ccc(F)cc3)c3cc(F)ccc3[nH]c2=O)CC1c1ccc(Cl)cc1 (stereo not shown) ) 5.9 µM

I am curious: what IC50 value has been reported for Cc1ccc2[nH]c(=O)c(C3=NN(C(=O)C(F)(F)CC(=O)O)C(c4ccc(Cl)cc4)C3)c(-c3ccc(Cl)cc3)c2c1 (single isomer, unassigned; (+)) [(+)-997-90] ? 4.1 µM

Returns the measured IC50 for the input compound. Input: O=C(CC(F)(F)C(=O)O)N1N=C(c2c(-c3cccc(F)c3)c3ccccc3[nH]c2=O)CC1c1ccc(Cl)cc1 (stereo not shown) 28 µM

---

- tgt: recombinant rat GluN1/GluN2D (Rattus norvegicus, UniProt Q62645)
- Construct: expressed in transfected cells; host or cells: Xenopus laevis oocytes injected with cRNA (GluN1:GluN2 ratio 1:2)
- Sequence (Q62645 28-1323, other chains not shown): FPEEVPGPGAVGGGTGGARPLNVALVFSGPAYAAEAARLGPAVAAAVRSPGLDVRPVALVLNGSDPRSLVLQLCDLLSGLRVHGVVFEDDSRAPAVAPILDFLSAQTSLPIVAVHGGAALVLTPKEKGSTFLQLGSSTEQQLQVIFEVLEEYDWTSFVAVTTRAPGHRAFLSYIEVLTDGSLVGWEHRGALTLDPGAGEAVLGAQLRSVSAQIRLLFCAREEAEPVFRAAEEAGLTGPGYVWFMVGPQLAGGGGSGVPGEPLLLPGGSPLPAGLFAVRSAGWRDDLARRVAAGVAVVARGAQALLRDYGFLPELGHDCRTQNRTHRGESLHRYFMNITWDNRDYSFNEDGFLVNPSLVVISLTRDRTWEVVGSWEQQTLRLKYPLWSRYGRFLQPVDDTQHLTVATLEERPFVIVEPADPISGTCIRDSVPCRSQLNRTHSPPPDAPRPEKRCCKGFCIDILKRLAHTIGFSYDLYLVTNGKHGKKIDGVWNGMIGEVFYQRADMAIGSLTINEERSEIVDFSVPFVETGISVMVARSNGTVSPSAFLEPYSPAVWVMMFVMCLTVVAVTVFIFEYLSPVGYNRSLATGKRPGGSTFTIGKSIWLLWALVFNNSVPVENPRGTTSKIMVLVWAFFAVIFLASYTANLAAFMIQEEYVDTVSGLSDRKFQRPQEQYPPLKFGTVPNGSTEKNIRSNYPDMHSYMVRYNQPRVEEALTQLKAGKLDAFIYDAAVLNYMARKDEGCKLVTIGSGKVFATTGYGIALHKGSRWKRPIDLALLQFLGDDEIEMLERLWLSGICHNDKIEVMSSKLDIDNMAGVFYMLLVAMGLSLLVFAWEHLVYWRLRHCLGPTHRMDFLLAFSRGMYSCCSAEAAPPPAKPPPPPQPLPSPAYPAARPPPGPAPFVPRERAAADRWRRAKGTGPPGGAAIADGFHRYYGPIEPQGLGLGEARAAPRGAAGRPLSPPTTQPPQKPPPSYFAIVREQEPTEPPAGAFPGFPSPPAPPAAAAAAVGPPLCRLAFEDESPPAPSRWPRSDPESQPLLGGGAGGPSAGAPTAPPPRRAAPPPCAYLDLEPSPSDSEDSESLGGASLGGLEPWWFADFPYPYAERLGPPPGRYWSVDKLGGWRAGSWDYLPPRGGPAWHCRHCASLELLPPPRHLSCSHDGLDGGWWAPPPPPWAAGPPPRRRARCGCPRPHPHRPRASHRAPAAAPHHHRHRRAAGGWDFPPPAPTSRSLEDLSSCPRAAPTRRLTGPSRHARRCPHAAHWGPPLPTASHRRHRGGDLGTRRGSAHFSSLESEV
- assay.remarks: Two-electrode voltage-clamp recordings in Xenopus laevis oocytes, GluN2D
- Format: cell-based
- test.parameters: ratio of IC50 values
Collected 2B IC50 / 2D IC50 values appear next to each entry.
Kindly provide the number alone.

>  <molecule>
O=c1[nH]c2ccccc2c(-c2ccc(Cl)cc2)c1C1=NNC(c2ccncc2)C1 (stereo not shown)

>  <2B IC50 / 2D IC50>
3

$$$$
>  <molecule>
O=C(O)CC(F)(F)C(=O)N1N=C(c2ccccc2-c2ccc(Cl)cc2)CC1c1ccc(Cl)cc1 (stereo not shown)

>  <2B IC50 / 2D IC50>
1

$$$$
>  <molecule>
NC(=O)CC(F)(F)C(=O)N1N=C(c2c(-c3ccc(Cl)cc3)c3ccccc3[nH]c2=O)CC1c1ccc(Cl)cc1 (stereo not shown)

>  <2B IC50 / 2D IC50>
14

$$$$
>  <molecule>
O=C(O)CC(F)(F)C(=O)N1N=C(c2ccccc2-c2ccc(Cl)cc2)CC1c1ccc(Cl)s1 (stereo not shown)

>  <2B IC50 / 2D IC50>
3

$$$$
>  <molecule>
O=C(O)CCC(=O)N1N=C(c2c(-c3ccc(Cl)cc3)c3ccccc3[nH]c2=O)CC1c1ccc(Cl)s1 (stereo not shown)

>  <2B IC50 / 2D IC50>
43

$$$$
>  <molecule>
O=C(O)CCC(=O)N1N=C(c2c(-c3ccc(Cl)cc3)c3ccccc3[nH]c2=S)CC1c1ccc(Cl)cc1 (stereo not shown)

>  <2B IC50 / 2D IC50>
86

$$$$

Now look at this one.
Which 2B IC50 / 2D IC50 value is on record for O=C(CC(F)(F)C(=O)O)N1N=C(c2c(-c3ccc(Cl)cc3)c3ccccc3[nH]c2=O)CC1c1ccc(Cl)cc1 (stereo not shown) ? 48

---

- tgt: recombinant rat GluN1/GluN2D (Rattus norvegicus, UniProt P35439+Q62645)
- Construct: expressed in transfected cells; host or cells: Xenopus laevis oocytes injected with cRNA (GluN1:GluN2 ratio 1:2)
- assay.remarks: Two-electrode voltage-clamp recordings in Xenopus laevis oocytes, GluN2D
- Format: cell-based
- test.parameters: read-out: IC50 at GluN2D-containing receptors
In plain terms, low IC50, meaning strictly below 100 nM, gives T, and everything else gives F.

Below are worked cases with known answers.
>  <molecule>
O=C(O)CC(F)(F)C(=O)N1N=C(c2c(-c3ccc(F)cc3)c3cc(F)ccc3[nH]c2=O)CC1c1ccc(Cl)cc1 (stereo not shown)

>  <tgt>
recombinant rat GluN1/GluN2D (Rattus norvegicus, UniProt P35439+Q62645)

>  <class.label>
F

$$$$
>  <molecule>
O=C(O)CC(F)(F)C(=O)N1N=C(c2c(-c3ccc(Cl)cc3)c3ccccc3[nH]c2=O)CC1c1ccc(Cl)s1 (stereo not shown)

>  <tgt>
recombinant rat GluN1/GluN2D (Rattus norvegicus, UniProt P35439+Q62645)

>  <class.label>
F

$$$$
>  <molecule>
O=C(CC(F)(F)C(=O)O)N1N=C(c2c(-c3ccc(Cl)cc3)c3ccccc3[nH]c2=O)CC1c1ccc(Cl)cc1 (stereo not shown)

>  <tgt>
recombinant rat GluN1/GluN2D (Rattus norvegicus, UniProt P35439+Q62645)

>  <class.label>
F

$$$$
>  <molecule>
O=C(O)/C=C(/F)C(=O)N1N=C(c2c(-c3ccc(Cl)cc3)c3ccccc3[nH]c2=O)CC1c1ccc(Cl)cc1 (stereo not shown)

>  <tgt>
recombinant rat GluN1/GluN2D (Rattus norvegicus, UniProt P35439+Q62645)

>  <class.label>
T

$$$$
>  <molecule>
O=C(O)CC(F)(F)C(=O)N1N=C(c2c(-c3ccc(Cl)cc3)c3ccccc3[nH]c2=S)CC1c1ccc(Cl)cc1 (stereo not shown)

>  <tgt>
recombinant rat GluN1/GluN2D (Rattus norvegicus, UniProt P35439+Q62645)

>  <class.label>
F

$$$$

Answer whether the molecule O=C(O)CC(F)(F)C(=O)N1N=C(c2c(-c3ccc(Cl)cc3)c3ccccc3[nH]c2=O)C[C@H]1c1ccc(Cl)cc1 [(−)-997-74] has IC50 strictly less than 100 nM T

---

- tgt: recombinant rat GluN1/GluN2C (Rattus norvegicus, UniProt P35439+Q00961)
- Construct: expressed in transfected cells; host or cells: Xenopus laevis oocytes injected with cRNA (GluN1:GluN2 ratio 1:2)
- Sequence (Q00961 20-1237, other chains not shown): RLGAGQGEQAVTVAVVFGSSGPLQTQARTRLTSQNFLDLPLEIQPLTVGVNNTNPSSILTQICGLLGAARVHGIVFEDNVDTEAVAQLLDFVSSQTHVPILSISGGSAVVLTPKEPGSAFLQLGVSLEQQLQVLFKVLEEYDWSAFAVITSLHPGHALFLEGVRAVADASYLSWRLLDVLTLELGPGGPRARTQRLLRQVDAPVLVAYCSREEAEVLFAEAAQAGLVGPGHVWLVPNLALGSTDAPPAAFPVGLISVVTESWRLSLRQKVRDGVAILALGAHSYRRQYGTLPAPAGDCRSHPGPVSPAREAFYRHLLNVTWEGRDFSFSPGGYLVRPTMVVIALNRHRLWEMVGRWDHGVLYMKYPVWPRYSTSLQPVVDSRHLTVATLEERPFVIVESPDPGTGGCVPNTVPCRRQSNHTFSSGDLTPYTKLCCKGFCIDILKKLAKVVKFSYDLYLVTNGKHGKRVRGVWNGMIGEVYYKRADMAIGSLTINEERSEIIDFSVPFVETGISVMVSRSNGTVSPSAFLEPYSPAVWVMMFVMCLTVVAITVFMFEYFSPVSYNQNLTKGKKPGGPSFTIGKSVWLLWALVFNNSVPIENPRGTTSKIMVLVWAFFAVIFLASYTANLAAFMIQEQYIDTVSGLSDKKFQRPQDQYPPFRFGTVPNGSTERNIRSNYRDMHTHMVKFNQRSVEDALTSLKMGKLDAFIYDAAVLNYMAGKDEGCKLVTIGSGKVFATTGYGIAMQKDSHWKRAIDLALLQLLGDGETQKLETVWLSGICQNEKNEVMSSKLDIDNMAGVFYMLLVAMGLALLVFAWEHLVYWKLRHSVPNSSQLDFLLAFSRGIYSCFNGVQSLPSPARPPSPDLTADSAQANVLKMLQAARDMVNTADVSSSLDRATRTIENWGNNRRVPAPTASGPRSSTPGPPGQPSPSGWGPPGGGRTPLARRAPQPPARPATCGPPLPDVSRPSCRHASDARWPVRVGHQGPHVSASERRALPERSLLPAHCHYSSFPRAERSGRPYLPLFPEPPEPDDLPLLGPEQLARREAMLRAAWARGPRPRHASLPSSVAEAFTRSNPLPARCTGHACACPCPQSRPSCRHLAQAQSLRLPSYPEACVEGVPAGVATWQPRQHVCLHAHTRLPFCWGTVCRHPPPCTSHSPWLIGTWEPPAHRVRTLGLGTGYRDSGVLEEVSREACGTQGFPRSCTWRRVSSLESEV
- assay.remarks: Two-electrode voltage-clamp recordings in Xenopus laevis oocytes, GluN2C
- Format: cell-based
- test.parameters: oocytes, 100 μM glutamate and 30 μM glycine; read-out: GluN2C IC50
quantity: pIC50
Quick note: pIC50 values are minus log10 of concentrations in mol/L.

>  <compound>
O=C(O)CC(F)(F)C(=O)N1N=C(c2ccccc2-c2ccc(C(F)(F)F)cc2)CC1c1ccc(Cl)cc1 (stereo not shown)

>  <pIC50>
5.44

$$$$
>  <compound>
O=C(O)CC(F)(F)C(=O)N1N=C(c2c(-c3ccc(Cl)s3)c3ccccc3[nH]c2=O)CC1c1ccc(Cl)cc1 (stereo not shown)

>  <pIC50>
6.55

$$$$
>  <compound>
O=C(O)CC(F)(F)C(=O)N1N=C(c2ccccc2-c2ccc(F)c(Cl)c2)CC1c1ccc(Cl)cc1 (stereo not shown)

>  <pIC50>
5.28

$$$$
>  <compound>
O=C(N1N=C(c2c(-c3ccc(Cl)cc3)c3ccccc3[nH]c2=O)CC1c1ccc(Cl)cc1)C(F)(F)CCO (stereo not shown)

>  <pIC50>
4.77

$$$$
>  <compound>
O=C(O)CC(F)(F)C(=O)N1N=C(c2ccccc2-c2cc(Cl)cc(Cl)c2)CC1c1ccc(Cl)cc1 (stereo not shown)

>  <pIC50>
5.13

$$$$
>  <compound>
NC(=O)CC(F)(F)C(=O)N1N=C(c2c(-c3ccc(Cl)cc3)c3ccccc3[nH]c2=O)CC1c1ccc(Cl)cc1 (stereo not shown)

>  <pIC50>
6.30

$$$$

Continue with the next compound.
Entry under review: O=C(O)CCC(=O)N1N=C(c2c(-c3ccc(Cl)cc3)c3ccccc3[nH]c2=S)CC1c1ccc(Cl)cc1 (stereo not shown) . Reported pIC50? 6.32

---

- tgt: recombinant rat GluN1/GluN2B (Rattus norvegicus, UniProt P35439+Q00960)
- assay.remarks: Two-electrode voltage-clamp recordings in Xenopus laevis oocytes, GluN2B
- test.parameters: oocytes, 100 μM glutamate and 30 μM glycine
// reported pIC50 for each item listed
Scale explanation: pIC50 corresponds to minus log10 of a concentration expressed in moles per litre.

>  <compound>
O=C(O)CCC(=O)N1N=C(c2c(-c3ccc(Cl)cc3)c3ccccc3[nH]c2=O)CC1c1ccc(Cl)s1 (centres unmarked)

>  <measured.result>
4.47

$$$$
>  <compound>
O=C(O)CC(F)(F)C(=O)N1N=C(c2ccccc2-c2ccc(Cl)cc2)CC1c1ccc(Cl)cc1 (centres unmarked)

>  <measured.result>
5.19

$$$$
>  <compound>
O=C(O)CCC(=O)N1N=C(c2c(-c3ccc(Cl)cc3)c3ccccc3[nH]c2=O)CC1c1ccc(C(F)(F)F)cc1 (centres unmarked)

>  <measured.result>
4.70

$$$$
>  <compound>
NC(=O)CC(F)(F)C(=O)N1N=C(c2c(-c3ccc(Cl)cc3)c3ccccc3[nH]c2=O)CC1c1ccc(Cl)cc1 (centres unmarked)

>  <measured.result>
5.55

$$$$
>  <compound>
O=C(O)CC(F)(F)C(=O)N1N=C(c2ccccc2-c2cc(Cl)cc(Cl)c2)CC1c1ccc(Cl)cc1 (centres unmarked)

>  <measured.result>
4.81

$$$$
>  <compound>
O=C(O)CC(F)(F)C(=O)N1N=C(c2c(-c3ccc(Cl)s3)c3ccccc3[nH]c2=O)CC1c1ccc(Cl)cc1 (centres unmarked)

>  <measured.result>
5.40

$$$$

# query: pIC50 of entry O=C(O)CC(F)(F)C(=O)N1N=C(c2c(-c3ccc(Cl)cc3)c3ccccc3[nH]c2=O)CC1c1ccc(Cl)s1 (centres unmarked) 4.00

pIC50 lookup needed for Cc1ccc2[nH]c(=O)c(C3=NN(C(=O)C(F)(F)CC(=O)O)C(c4ccc(Cl)cc4)C3)c(-c3ccc(Cl)cc3)c2c1 (single isomer, unassigned; (-)) [(−)-997-90] , thanks. 5.72

Reported pIC50, compound O=C(O)CC(F)(F)C(=O)N1N=C(c2ccccc2-c2ccc(F)c(Cl)c2)CC1c1ccc(Cl)cc1 (centres unmarked) : ____ 5.06

Which pIC50 value belongs to O=C(O)/C=C(/F)C(=O)N1N=C(c2c(-c3ccc(Cl)cc3)c3ccccc3[nH]c2=O)CC1c1ccc(Cl)cc1 (centres unmarked) ? 4.96

Fill in: pIC50 of O=C(CC(F)(F)C(=O)O)N1N=C(c2c(-c3cccc(F)c3)c3ccccc3[nH]c2=O)CC1c1ccc(Cl)cc1 (centres unmarked) is ___ 4.32
